tgt: UniProt P05177
Sequence (P05177 whole entry): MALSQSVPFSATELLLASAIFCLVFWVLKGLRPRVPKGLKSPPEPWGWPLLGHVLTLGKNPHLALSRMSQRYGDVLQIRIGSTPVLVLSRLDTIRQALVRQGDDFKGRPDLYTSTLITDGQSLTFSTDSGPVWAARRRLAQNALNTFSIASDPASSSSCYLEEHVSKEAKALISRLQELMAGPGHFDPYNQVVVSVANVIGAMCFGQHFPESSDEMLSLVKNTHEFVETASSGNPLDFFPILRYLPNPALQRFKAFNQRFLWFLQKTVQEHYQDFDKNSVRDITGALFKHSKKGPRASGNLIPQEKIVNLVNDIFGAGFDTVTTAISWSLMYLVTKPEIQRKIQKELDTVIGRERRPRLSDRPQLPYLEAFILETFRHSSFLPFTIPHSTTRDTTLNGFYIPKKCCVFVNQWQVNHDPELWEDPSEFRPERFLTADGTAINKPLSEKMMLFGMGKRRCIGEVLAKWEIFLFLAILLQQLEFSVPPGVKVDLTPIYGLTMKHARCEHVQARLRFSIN
protocol_notes: Inhibition of human CYP1A2 expressed in baculovirus-infected insect cells at 10 uM using Luciferin-1A2 as substrate in presence of NADPH by P450-Glo luminescence assay relative to control
Type: ADME
measurement_context: probe Luciferin-1A2
readout_name: inhibition at 10 µM (%)

COc1ccc(C(=O)/C=C/c2cc(OC)c(OC)c(OC)c2)c(O)c1; 1.2

I = COc1ccc(C(=O)/C=C/c2ccc(OC)c(OC)c2)c(O)c1
II = COc1cc(O)c(C(=O)/C=C/c2cc(OC)c(OC)c(OC)c2)cc1OC
**Query** Please indicate which has the smaller reported inhibition at 10 µM: I , or II . Mark your selection by writing its label.
**Result** II
(II: -3.1%, I: 36.2%)

1 = COc1ccc(/C=C/C(=O)c2ccc(OC)cc2O)cc1
2 = COc1ccc(O)c(C(=O)/C=C/c2cc(OC)c(OC)c(OC)c2)c1
**Query** Recorded inhibition at 10 µM values differ for 1 and 2 ; which one is higher? Mark your selection by writing its label.
**Result** 1
